System: peripheral blood mononuclear cells (PBMC)
Assay info: Peripheral blood mononuclear cell (PBMC) assay
Format: cell-based
Assay context: tumor necrosis factor-alpha level; 1 h with compounds, washed, 15 hour incubation; average of one to four donors; read-out: PBMC EC50 (μM) TNF-α
Measured attribute: EC50 (µM)
Report the value in µM with no unit label.

Below are worked cases with known answers.
[
  {
    "Compound": "CCCCCCCC(=O)OCOP1(=O)OC[C@H]2O[C@@H](n3cnc4c(N)ncnc43)[C@H](F)[C@@H]2OP(=O)(OCOC(=O)CCCCCCC)OC[C@H]2C[C@@H](n3cnc4c(N)ncnc43)[C@H](F)[C@@H]2O1 (single isomer, unassigned) [Compound 146b]",
    "Measured attribute": "EC50",
    "Numeric value": 0.01
  },
  {
    "Compound": "CCCCCCCC(=O)OCOP1(=O)OC[C@H]2O[C@@H](n3cnc4c(N)ncnc43)[C@H](F)[C@@H]2OP(=O)(OCOC(=O)CCCCCCC)OC[C@H]2C[C@@H](n3cnc4c(N)ncnc43)[C@H](F)[C@@H]2O1 (single isomer, unassigned) [Compound 146c]",
    "Measured attribute": "EC50",
    "Numeric value": 0.01
  },
  {
    "Compound": "CC(C)(C)C(=O)OCOP1(=O)OC[C@H]2C[C@@H](n3cnc4c(N)ncnc43)C(F)C2OP(=O)(OCOC(=O)C(C)(C)C)OC[C@H]2C[C@@H](n3cnc4c(N)ncnc43)C(F)C2O1 (single isomer, unassigned) [Compound 138b]",
    "Measured attribute": "EC50",
    "Numeric value": 1.3
  }
]

Param item = CC(C)(C)C(=O)OCOP1(=O)OC[C@H]2O[C@@H](n3cnc4c(N)ncnc43)CC2OP(=O)(OCOC(=O)C(C)(C)C)OC[C@H]2C[C@@H](n3cnc4c(N)ncnc43)C(F)C2O1 (some centres unmarked) [Compound 139b] ; retrieve measured EC50.
0.1

Param item = CC(C)(C)C(=O)OCSP1(=O)OC[C@H]2O[C@@H](n3cnc4c(=O)[nH]c(N)nc43)[C@H](F)[C@@H]2OP(=O)(SCOC(=O)C(C)(C)C)OC[C@H]2C[C@@H](n3cnc4c(N)ncnc43)[C@H](F)[C@@H]2O1 (single isomer, unassigned) [Compound 150a] ; retrieve measured EC50.
0.7

* * *

Experimental target: WT STING (Homo sapiens, UniProt Q86WV6, H232R)
Sequence (Q86WV6 whole entry H232R): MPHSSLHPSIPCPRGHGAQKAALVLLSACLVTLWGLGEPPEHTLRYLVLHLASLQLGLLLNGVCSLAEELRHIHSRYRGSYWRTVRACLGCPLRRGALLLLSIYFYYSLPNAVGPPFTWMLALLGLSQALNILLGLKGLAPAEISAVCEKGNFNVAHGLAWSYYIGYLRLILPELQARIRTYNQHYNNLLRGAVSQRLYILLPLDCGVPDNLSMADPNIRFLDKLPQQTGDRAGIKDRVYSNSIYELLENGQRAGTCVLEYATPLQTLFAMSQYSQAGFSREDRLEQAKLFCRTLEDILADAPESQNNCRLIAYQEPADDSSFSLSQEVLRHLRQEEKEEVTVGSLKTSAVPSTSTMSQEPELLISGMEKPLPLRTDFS
Assay info: Digitonin assay using 293T wtSTING-FL reporter cells
Type: cell-based
Design: host or cells: 293T (ATCC CRL-3216), stably transfected, with 4xISRE firefly luciferase reporter
Assay context: 293T wtSTING-FL cells, ISRE firefly luciferase; compounds in Digitonin buffer 30 minutes, then 5 hours; 8-point curve
# maps each entry to its EC50
Report the value in nM with no unit label.

Below are worked cases with known answers.
[
  {
    "Molecule": "Nc1nc2c(ncn2[C@@H]2O[C@@H]3COP(=O)(O)OC4C(O)[C@H](n5cnc6c(N)ncnc65)C[C@@H]4COP(=O)(O)OC3C2F)c(=O)[nH]1 (single isomer, unassigned) [Compound 111]",
    "EC50, nM": 70
  },
  {
    "Molecule": "Nc1nc2c(ncn2[C@H]2CC3OP(=O)(O)OC[C@H]4C[C@@H](n5cnc6c(N)ncnc65)C(O)C4OP(=O)(O)OC[C@H]3O2)c(=O)[nH]1 (stereo partly drawn) [Compound 110]",
    "EC50, nM": 50
  }
]

// below: EC50 requested for another molecule
Param item = Nc1nc2c(ncn2[C@H]2CC3OP(=O)(S)OC[C@H]4O[C@@H](n5cnc6c(N)ncnc65)C(F)C4OP(=O)(S)OC[C@H]3C2)c(=O)[nH]1 (single isomer, unassigned) [Compound 129a] ; retrieve measured EC50.
100
